- SYSTEM_TESTED: CDK6/CyclinD3 (Homo sapiens (Human), UniProt Q00534)
- Sequence (Q00534 whole entry): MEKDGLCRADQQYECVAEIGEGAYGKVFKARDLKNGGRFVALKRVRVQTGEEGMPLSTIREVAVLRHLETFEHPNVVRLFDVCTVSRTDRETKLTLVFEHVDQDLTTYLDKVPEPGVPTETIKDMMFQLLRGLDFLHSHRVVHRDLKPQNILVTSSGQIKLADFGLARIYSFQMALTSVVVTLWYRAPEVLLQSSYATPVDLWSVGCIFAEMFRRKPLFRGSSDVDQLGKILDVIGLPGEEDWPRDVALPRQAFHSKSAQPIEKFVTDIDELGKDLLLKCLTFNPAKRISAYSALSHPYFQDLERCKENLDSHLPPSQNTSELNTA
- Sequence (P30281 whole entry partner): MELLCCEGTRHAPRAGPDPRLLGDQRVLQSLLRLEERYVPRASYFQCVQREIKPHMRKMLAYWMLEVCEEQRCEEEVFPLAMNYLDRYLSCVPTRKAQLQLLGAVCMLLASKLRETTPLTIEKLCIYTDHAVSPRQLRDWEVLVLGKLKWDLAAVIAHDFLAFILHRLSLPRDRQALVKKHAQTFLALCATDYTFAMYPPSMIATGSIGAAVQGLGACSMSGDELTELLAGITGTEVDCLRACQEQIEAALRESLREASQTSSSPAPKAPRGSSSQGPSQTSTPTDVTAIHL
- EXPERIMENT_NOTES: CDK kinase inhibitory activity, ADP-Glo Kinase Assay, CDK6/CyclinD3
Parameter class (string): assigned from measured IC50. Ranges: bin 1 (below 4 nM), bin 2 (4 nM to below 10 nM), bin 3 (10 nM or more)

COMPOUND: CCC1(C)C(C)=Nc2ccc(-c3nc(Nc4ccc(C5CCNCC5)cn4)ncc3F)cc21 (stereo not shown) [Example 33]
ASSIGNED_CATEGORY: bin 3

COMPOUND: CCN1CCC(c2ccc(Nc3ncc(F)c(-c4cc(F)c5c(c4)C(C)(CC)C(C)=N5)n3)nc2)CC1 (stereo not shown) [Example 26]
ASSIGNED_CATEGORY: bin 3

COMPOUND: CCC1(C)C(C)=Nc2c(F)cc(-c3nc(Nc4ccc5c(n4)CCN(C(=O)CO)C5)ncc3F)cc21 (stereo not shown) [Example 39]
ASSIGNED_CATEGORY: bin 2

COMPOUND: CCN1CCN(Cc2ccc(Nc3ncc(F)c(-c4cc(F)c5c(c4)C4(CCCC4)C(C)=N5)n3)nc2)CC1 [Example 3]
ASSIGNED_CATEGORY: bin 3

COMPOUND: CCC1(CC)C(C)=Nc2c(F)cc(-c3nc(Nc4ccc(N5CCN(C)CC5)cn4)ncc3F)cc21 [Example 16]
ASSIGNED_CATEGORY: bin 2

COMPOUND: CC1=Nc2c(F)cc(-c3nc(Nc4ccc(C5CCN(C)CC5)cn4)ncc3F)cc2C12CCCC2 [Example 17]
ASSIGNED_CATEGORY: bin 1

COMPOUND: CC1=Nc2c(F)cc(-c3nc(Nc4ccc(CN5CCN(C)CC5)cn4)ncc3F)cc2C12CCCC2 [Example 43]
ASSIGNED_CATEGORY: bin 1

COMPOUND: CCN1CCN(Cc2ccc(Nc3ncc(F)c(-c4cc(F)c5c(c4)C(CC)(CC)C(C)=N5)n3)nc2)CC1 [Example 10]
ASSIGNED_CATEGORY: bin 3

COMPOUND: CCC1(C)C(C)=Nc2ccc(-c3nc(Nc4ccc(C5CCN(C)CC5)cn4)ncc3F)cc21 (stereo not shown) [Example 35]
ASSIGNED_CATEGORY: bin 2

COMPOUND: CC1=Nc2c(F)cc(-c3nc(Nc4ccc(OC5CCN(C)CC5)cn4)ncc3F)cc2C12CCCC2 [Example 45]
ASSIGNED_CATEGORY: bin 3

COMPOUND: CCC1(CC)C(C)=Nc2c(F)cc(-c3nc(Nc4ccc(C5CCN(C)CC5)cn4)ncc3F)cc21 [Example 38]
ASSIGNED_CATEGORY: bin 1

COMPOUND: CC1=Nc2c(F)cc(-c3nc(Nc4ccc(C5CCN(C)CC5)cn4)ncc3F)cc2C1(C)C [Example 31]
ASSIGNED_CATEGORY: bin 3

COMPOUND: CC1=Nc2ccc(-c3nc(Nc4ccc(C5CCNCC5)cn4)ncc3F)cc2C12CCCC2 [Example 15]
ASSIGNED_CATEGORY: bin 2

COMPOUND: CC1=Nc2c(F)cc(-c3nc(Nc4ccc(N5CCN(CCO)CC5)cn4)ncc3F)cc2C12CCCC2 [Example 28]
ASSIGNED_CATEGORY: bin 2

COMPOUND: CCC1(C)C(C)=Nc2c(F)cc(-c3nc(Nc4ccc(CN5CCN(C)CC5)cn4)ncc3F)cc21 (stereo not shown) [Example 42]
ASSIGNED_CATEGORY: bin 1
